# Tested on: Pseudomonas aeruginosa (ATCC 9027)
# MEASUREMENT_DESCRIPTION: Antimicrobial paper disc diffusion method
# Format: cell-based
# COND: Pseudomonas aeruginosa, ATCC9027; P. aeruginosa; 10 μg per disc; paper disc diameter 6.0 mm; mean ± SD of three replicates
ENDPOINT_NAME: zone of inhibition at 10 µg/disc

{"COMPOUND": "CC1(C)S[C@@H]2[C@H](NC(=O)[C@H](N)c3ccccc3)C(=O)N2[C@H]1C(=O)O [Ampicillin, reference compound]", "VALUE_REPORTED": "12 mm"}
{"COMPOUND": "CC=C(C)c1c2c(c(C)c(O)c1C(=O)O)OC(=O)c1c(C)cc(O)cc1O2 [Compound 9, aspergillusidone A]", "VALUE_REPORTED": "16 mm"}
{"COMPOUND": "CC=C(C)c1cc(O)c(C)c2c1Oc1cc(O)c(Cl)c(C)c1C(=O)O2 [Compound 8, 2-chlorounguinol]", "VALUE_REPORTED": "11.1 mm"}
{"COMPOUND": "C/C=C(\\C)c1cc(O)c(C)c2c1Oc1cc(O)cc(C)c1C(=O)O2 [Compound 6, unguinol]", "VALUE_REPORTED": "8.7 mm"}
{"COMPOUND": "CC=C(C)c1c(Cl)c(OC)c(C)c2c1Oc1c(Cl)c(O)c(Cl)c(C)c1C(=O)O2 [Compound 4, nidulin]", "VALUE_REPORTED": "9.5 mm"}
{"COMPOUND": "CC=C(C)c1c(Br)c(O)c(C)c2c1Oc1c(Br)c(O)cc(C)c1C(=O)O2 [Compound 5, aspergillusidone F]", "VALUE_REPORTED": "11.9 mm"}
{"COMPOUND": "C/C=C(\\C)c1cc(OC(=O)c2c(C)cc(O)cc2O)c(C)c(O)c1C(=O)O [Compound 1]", "VALUE_REPORTED": "7.7 mm"}
{"COMPOUND": "CC=C(C)c1c(Cl)c(O)c(C)c2c1Oc1cc(O)c(Cl)c(C)c1C(=O)O2 [Compound 7, aspergillusidone C]", "VALUE_REPORTED": "10 mm"}
{"COMPOUND": "CC=C(C)c1c(Cl)c(O)c(C)c2c1Oc1c(Cl)c(O)c(Cl)c(C)c1C(=O)O2 [Compound 3, nornidulin]", "VALUE_REPORTED": "12.2 mm"}

----------
# MEASUREMENT_DESCRIPTION: Brine shrimp larva lethality test
# Assay type: in vivo, Artemia salina
# COND: Artemia salina (brine shrimp) larvae, live brine shrimp larvae in 96-well plate, other: immersion in seawater containing the compound, 24 h at 28 °C, read-out: Larvicidal Activity (LC50)
Labelling field: enter Criterion met if recorded LC50 at 24 h is less than 50 µM. Enter Criterion not met if it equals or exceeds that cut-off.

{"COMPOUND": "CC=C(C)c1cc(O)c(C)c2c1Oc1cc(O)c(Cl)c(C)c1C(=O)O2", "CATEGORY_LABEL": "Criterion not met"}
{"COMPOUND": "C/C=C(\\C)c1cc(O)c(C)c(OC(=O)c2c(/C(C)=C/C)cc(O)c(C)c2O)c1 [Compound 2, agonodepside A]", "CATEGORY_LABEL": "Criterion not met"}
{"COMPOUND": "C/C=C(\\C)c1cc(OC(=O)c2c(C)cc(O)cc2O)c(C)c(O)c1C(=O)O", "CATEGORY_LABEL": "Criterion not met"}
{"COMPOUND": "CC=C(C)c1c(Cl)c(O)c(C)c2c1Oc1cc(O)c(Cl)c(C)c1C(=O)O2", "CATEGORY_LABEL": "Criterion not met"}
{"COMPOUND": "CC=C(C)c1c(Cl)c(OC)c(C)c2c1Oc1c(Cl)c(O)c(Cl)c(C)c1C(=O)O2", "CATEGORY_LABEL": "Criterion met"}
{"COMPOUND": "CC=C(C)c1c(Br)c(O)c(C)c2c1Oc1c(Br)c(O)cc(C)c1C(=O)O2", "CATEGORY_LABEL": "Criterion met"}
{"COMPOUND": "C/C=C(\\C)c1cc(O)c(C)c2c1Oc1cc(O)cc(C)c1C(=O)O2", "CATEGORY_LABEL": "Criterion not met"}

----------
# Tested on: Pseudomonas aeruginosa (ATCC 9027)
# MEASUREMENT_DESCRIPTION: Antimicrobial microdilution method (MIC)
# Assay type: cell-based
# COND: ATCC9027, P. aeruginosa

{"COMPOUND": "C/C=C(\\C)c1cc(OC(=O)c2c(C)cc(O)cc2O)c(C)c(O)c1C(=O)O [Compound 1]", "TARGET_OR_TEST_SYSTEM": "Pseudomonas aeruginosa (ATCC 9027)", "BOUND_TYPE": "=", "MIC / µM": 102}
{"COMPOUND": "CC=C(C)c1c(Cl)c(O)c(C)c2c1Oc1cc(O)c(Cl)c(C)c1C(=O)O2 [Compound 7, aspergillusidone C]", "TARGET_OR_TEST_SYSTEM": "Pseudomonas aeruginosa (ATCC 9027)", "BOUND_TYPE": "=", "MIC / µM": 25.6}
{"COMPOUND": "CC1(C)S[C@@H]2[C@H](NC(=O)[C@H](N)c3ccccc3)C(=O)N2[C@H]1C(=O)O [Ampicillin, reference compound]", "TARGET_OR_TEST_SYSTEM": "Pseudomonas aeruginosa (ATCC 9027)", "BOUND_TYPE": "=", "MIC / µM": 1.6}
{"COMPOUND": "CC=C(C)c1c(Br)c(O)c(C)c2c1Oc1c(Br)c(O)cc(C)c1C(=O)O2 [Compound 5, aspergillusidone F]", "TARGET_OR_TEST_SYSTEM": "Pseudomonas aeruginosa (ATCC 9027)", "BOUND_TYPE": "=", "MIC / µM": 6.4}
{"COMPOUND": "CC=C(C)c1c(Cl)c(O)c(C)c2c1Oc1c(Cl)c(O)c(Cl)c(C)c1C(=O)O2 [Compound 3, nornidulin]", "TARGET_OR_TEST_SYSTEM": "Pseudomonas aeruginosa (ATCC 9027)", "BOUND_TYPE": ">", "MIC / µM": 102}
{"COMPOUND": "C/C=C(\\C)c1cc(O)c(C)c2c1Oc1cc(O)cc(C)c1C(=O)O2 [Compound 6, unguinol]", "TARGET_OR_TEST_SYSTEM": "Pseudomonas aeruginosa (ATCC 9027)", "BOUND_TYPE": "=", "MIC / µM": 102}
{"COMPOUND": "CC=C(C)c1c(Cl)c(OC)c(C)c2c1Oc1c(Cl)c(O)c(Cl)c(C)c1C(=O)O2 [Compound 4, nidulin]", "TARGET_OR_TEST_SYSTEM": "Pseudomonas aeruginosa (ATCC 9027)", "BOUND_TYPE": ">", "MIC / µM": 102}
{"COMPOUND": "CC=C(C)c1c2c(c(C)c(O)c1C(=O)O)OC(=O)c1c(C)cc(O)cc1O2 [Compound 9, aspergillusidone A]", "TARGET_OR_TEST_SYSTEM": "Pseudomonas aeruginosa (ATCC 9027)", "BOUND_TYPE": "=", "MIC / µM": 102}
{"COMPOUND": "CC=C(C)c1cc(O)c(C)c2c1Oc1cc(O)c(Cl)c(C)c1C(=O)O2 [Compound 8, 2-chlorounguinol]", "TARGET_OR_TEST_SYSTEM": "Pseudomonas aeruginosa (ATCC 9027)", "BOUND_TYPE": "=", "MIC / µM": 51.2}

----------
# MEASUREMENT_DESCRIPTION: Brine shrimp larva lethality test
# Type: in vivo, Artemia salina
# COND: Artemia salina (brine shrimp) larvae, in vivo, other: compound added to the seawater holding the larvae, 24 h at 28 °C, read-out: Larvicidal Activity (LC50)

{"MOLECULE": "CC=C(C)c1c(Cl)c(O)c(C)c2c1Oc1c(Cl)c(O)c(Cl)c(C)c1C(=O)O2 [Compound 3, nornidulin]", "UNIT_NAME": "µM", "LC50 at 24 h": 12.8}
